Measured pEC50 accompanies every entry in the list below.
TESTED_TARGET: human S1PR4 (Homo sapiens, UniProt O95977)
Construct: host or cells: CHO-K1
Sequence (O95977 1-384): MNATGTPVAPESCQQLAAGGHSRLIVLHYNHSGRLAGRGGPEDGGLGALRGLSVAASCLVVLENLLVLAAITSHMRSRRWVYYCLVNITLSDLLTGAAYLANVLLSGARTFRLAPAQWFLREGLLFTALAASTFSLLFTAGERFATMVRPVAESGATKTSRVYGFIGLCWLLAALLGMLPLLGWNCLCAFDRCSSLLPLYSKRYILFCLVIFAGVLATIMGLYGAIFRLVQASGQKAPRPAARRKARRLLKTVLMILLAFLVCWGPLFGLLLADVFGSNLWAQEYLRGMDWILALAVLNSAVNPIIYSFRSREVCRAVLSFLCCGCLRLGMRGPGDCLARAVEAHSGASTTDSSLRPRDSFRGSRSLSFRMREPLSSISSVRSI
ASSAY_EXPLANATION: Intracellular Ca2+ release (FLIPR) agonist potency, S1P4
Type: cell-based
CONDITION_NOTES: recombinant CHO-K1 cells expressing human S1PR4, aequorin, Gq/i5; Calcium 5 FLIPR; read-out: S1P4 EC50
pEC50: −log10 of the molar value.

As a guide, the following entries are already answered.
Cc1ccc(COc2ccc3c(c2)OCC(N2CC(C(=O)O)C2)C3)c(F)c1 (stereo not drawn) | < 6.00
CCc1cccc(F)c1COc1ccc2c(c1)OCC(NC1(CC(=O)O)CCC1)C2 (stereo not drawn) | > 6.00
CC(C)(C)c1ccc(COc2ccc3c(c2)CCC(OCC(=O)O)C3)cc1 (stereo not drawn) | < 6.00

Look at this compound and give its reported pEC50. O=C(O)CNC1CCc2cc(C#CC3CCCCC3)ccc2C1 (stereo not drawn)
> 6.00

Look at this compound and give its reported pEC50. Cc1c(COc2ccc3c(c2)CCC(OCC(=O)O)C3)cccc1C(F)(F)F (stereo not drawn)
< 6.00

Look at this compound and give its reported pEC50. O=C(O)C1CN(C2COc3cc(OCc4cccc(Cl)c4)ccc3C2)C1 (stereo not drawn)
< 6.00

Taken from patent US10280159B2.
